Parameter melting point: see the listing below.

Take a look at these entries with their results.
molecular.string	melting point
CN(Cc1cc2nc(-c3ccc(F)cc3)nc(N3CCOCC3)c2s1)c1ncc(C(=O)NO)cn1	168 to 170 °C
CN(Cc1cc2nc(-c3ccc(N)c(C#N)c3)nc(N3CCOCC3)c2s1)c1ncc(C(=O)NO)cn1	237 to 240 °C

Reported melting point for CN(Cc1cc2nc(-c3cccnc3)nc(N3CCOCC3)c2s1)c1ncc(C(=O)NO)cn1 : what is it? 160 to 164 °C

Follow-up entry: Nc1ccc(-c2nc(N3CCOCC3)c3sc(CNc4ncc(C(=O)NO)cn4)cc3n2)cc1 217 to 223 °C

Quick one: CN(Cc1cc2nc(-c3ccc(N4CCCC4)cc3)nc(N3CCOCC3)c2s1)c1ncc(C(=O)NO)cn1 187 to 192 °C

Also CS(=O)(=O)N1CCN(Cc2cc3nc(-c4ccc(OCCCCCCC(=O)NO)cc4)nc(N4CCOCC4)c3s2)CC1 , if possible. 143 to 145 °C

Same for O=C(CCCNCc1cc2nc(-c3cccc4[nH]ncc34)nc(N3CCOCC3)c2s1)NO 149 to 152 °C

// same read-out, input: CN(Cc1cc2nc(-c3ccc(C(F)(F)F)cc3)nc(N3CCOCC3)c2s1)c1ncc(C(=O)NO)cn1 222 to 223 °C

Then what about the molecule Nc1ncc(-c2nc(N3CCOCC3)c3sc(NS(=O)(=O)c4ccc(/C=C/C(=O)NO)cc4)cc3n2)cn1 ? > 300 °C

Then what about the molecule CN(Cc1cc2nc(-c3ccc4[nH]c(C(F)(F)F)nc4c3)nc(N3CCOCC3)c2s1)c1ncc(C(=O)NO)cn1 ? > 300 °C

Repeat with COc1ccc(-c2nc(N3CCOCC3)c3sc(S(=O)(=O)Nc4ncc(C(=O)NO)cn4)cc3n2)cn1 259 to 265 °C

Queued: CN(Cc1cc2nc(-c3cccc4[nH]ncc34)nc(N3CCOCC3)c2s1)CC1CCN(c2ncc(C(=O)NO)cn2)CC1 174 to 175 °C

And what about the molecule CNc1ccc(-c2nc(N3CCOCC3)c3sc(C(C)(C)Nc4ncc(C(=O)NO)cn4)cc3n2)cn1 ? 200 to 205 °C
